- testSystem: T1, LNX2_2, Q8N448
- T1 sequence (Q8N448 334-432, limits assumed, looked up): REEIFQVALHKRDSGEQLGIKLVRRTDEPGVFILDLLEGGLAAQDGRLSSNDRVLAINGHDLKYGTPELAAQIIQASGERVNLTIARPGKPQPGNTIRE
- measurementProtocol: holdup assay
- Set-up: key: below the threshold = too weak to quantify, mostly under pKd 3.1 to 4
- runParameters: plain residues with an end cap or a label only (N-terminal biotin on a linker: ado-ado)
measure: pKd

- binder: "RRLPGKETMA [GRIK2, Q13002]"
  result: "below the threshold"
- binder: "LRSPRTPSEV [OR10G3, Q8NGC4]"
  result: "below the threshold"
- binder: "YLEPVLSSEL [ATP2A2, P16615;P16615-3]"
  result: "below the threshold"
- binder: "DDENIRTSDV [PLEKHA2, Q9HB19]"
  result: "below the threshold"
- binder: "QGLAERISVL [PRKD2, Q9BZL6]"
  result: "below the threshold"
- binder: "FNSYSLTGYV [CLDN2, P57739]"
  result: 4.98
- binder: "QHKTQLQTLI [BPIFA2, Q96DR5]"
  result: 4
- binder: "KKAPTNEFYA [SDC4, P31431]"
  result: "below the threshold"
- binder: "EVEEFPETSV [TRPV3, Q8NET8]"
  result: 3.98
- binder: "EALLQMESVA [CAVIN3, Q969G5]"
  result: "below the threshold"
